Test system: HepG2
Assay: Cytotoxicity against human HepG2 cells after 12 days by methylene blue colorimetric method
Format: functional, cell-based
Details: HepG2, 288 h
RECORDED_ENDPOINT: IC50 (µg/mL)
Kindly answer with a numeric value in µg/mL, unit omitted.

Solved cases (5 shown):
{"columns": ["MOLECULE", "IC50 (µg/mL)"],
 "data": [
  ["CCCCCCCCCCCC[C@@H](O)[C@H]1CC[C@H]([C@H](O)CCCC[C@H](O)CCCCCCCC2=C[C@H](C)OC2=O)O1 [COROSSOLINE]", 0.353],
  ["CCCCCCCC(O)C(O)CC[C@H](O)[C@@H]1CC[C@@H](CCCCCCCCCC[C@@H](O)CC2=C[C@H](C)OC2=O)O1 (stereo partly specified) [MURICIN D]", 0.00066],
  ["CCCCCCCCCCCCCC[C@@H](O)[C@H]1CC[C@H]([C@H](O)CC[C@H](O)CCCCCCCC2=C[C@H](C)OC2=O)O1 [LONGIFOLICIN]", 0.000404],
  ["CCCCCCCCCCCCC(O)C(O)CCC(O)C1CCC(CCCCCCC[C@@H](O)CC2=C[C@H](C)OC2=O)O1 (mixture of isomers) [MURICATETROCIN A/B]", 0.0495],
  ["CCCCC(O)C(O)C/C=C\\CC[C@H](O)[C@@H]1CC[C@@H](CCCCCCCCCCCC[C@@H](O)CC2=C[C@H](C)OC2=O)O1 (stereo partly specified) [MURICIN F]", 0.0428]
]}

Now for the molecule whose IC50 we want.
In: Given the molecule CCCCCCCCCCCC[C@@H](O)[C@H]1CC[C@@H]([C@@H](O)CCCCC(=O)CCCCCCCC2=C[C@H](C)OC2=O)O1 [COROSSOLONE] , what is its reported IC50?
Out: 0.48
